# assay system: T1, MMP-26 catalytic domain, tagged with hexa-histidine (human, UniProt Q9NRE1 90-261)
# T1 construct: the forward primer adds Met-Ala before it; also called MMP-26 target protein; Matrilysin-2; not shown: Also any N-terminal residues added by the forward primer (Met-Ala according to our card; the primers were not visible to me)
# T1 sequence: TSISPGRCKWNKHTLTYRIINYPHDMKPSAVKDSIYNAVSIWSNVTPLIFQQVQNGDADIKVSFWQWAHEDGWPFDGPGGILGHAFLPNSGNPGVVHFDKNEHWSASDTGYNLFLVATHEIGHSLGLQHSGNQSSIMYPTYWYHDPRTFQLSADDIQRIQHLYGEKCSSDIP
# assay: bead-based ELISA, MMP-26 on nickel beads, IgG4 culture supernatant
# Procedure: Reformatted and expressed full-length MMP-26 binding IgG4 antibodies were tested for specificity in a bead-based ELISA. Approximately 1.25 μg of MMP-26 protein was bound to nickel-coated magnetic beads (Novagen) which had been pre-blocked with phosphate buffered saline containing 5% (w/v) nonfat dry milk and 0.05% (v/v) Tween-20. […] The beads were washed with PBS-T and MMP-26-binding antibodies were detected with an HRP-conjugated anti-human secondary antibody. […]
quantity kind: F > B (fold over background)
Return type: number; implicit unit fold over background.

Exercise: Name the reported F > B (fold over background) value associated with the binder A07 (antibody, human IgG4, V domains shown, whole human IgG4) VH: EVQLLESGGGLVQPGGSLRLSCAASGFTFSEYNMMWVRQAPGKGLEWVSVISPSGGGTLYADSVKGRFTISRDNSKNTLYLQMNSLRAEDTAVYYCARDLNNSSPPDSNDAFDIWGRGTMVTVSS VL: QSELTQPPSASGSPGQSVTISCTGTSSDVGGYNYVSWYQQHPDKAPKLLIYEVTQRPSGVPDRFSGSRSGNTASLTVSGLQAEDEADYYCSSYAGRNNLYVFGPGTKVTVLG
Key: 8.38

Exercise: Here is the next binder: B11 (antibody, human IgG4, V domains shown, whole human IgG4; the VHC entry has one unread residue (printed z, K75z)) VH: EVQLLESGGGLVQPGGSLRLSCAASGFTFSPYFMFWVRQAPGKGLEWVSSIGSSGGDTSYADSVKGRFTISRDNSZNTLYLQMNSLRAEDTAVYYCARGLYRWGQGTLVTVSS VL: QSELTQPPSVSLAPGQTARITCGGNNIGTKSVHWYQQKPGQAPVLVVYDDSDRPSGIPERFSGSNSGNTATLTISRVEAGDEADYYCQVWDSGSDHQVFGGGTKLTVLG
Key: 3.13
